System: NCI-H460 lung | Read-out: GI50

CCNC(=O)Oc1ccc(/C(=C(/C)Cc2ccc(OC)cc2)c2ccc(OCCN(CC)CC)cc2)cc1; 1.85 µM
Oc1c(Cl)cc(Cl)c2ccc(Cn3cc(-c4ccc(C(F)(F)F)cc4)nn3)nc12; 18.9 µM
COc1cccc(Nc2nc3ccccc3c3occc23)c1; 25.2 µM

Prompt: // lookup GI50 for CC(C)COc1nc2c(c(=O)n(C)c(=O)n2C)n1C
Response: > 100 µM

Prompt: Then this molecule: CSc1nc2c(c(=O)n1C)CN(C1CCCCC1)C(=O)C(c1ccccc1)N2 (stereo not given)
Response: 37.2 µM

====

Tested on: CAKI-1 renal
Test: NCI tumour cell line growth inhibition, 48 h
measurement_name: TGI

CC(C)COc1nc2c(c(=O)n(C)c(=O)n2C)n1C; > 100 µM
Cc1c(CCCl)c(N=P(c2ccccc2)(c2ccccc2)c2ccccc2)n2c(nc3ccccc32)c1C#N; > 10 µM
COC(=O)C1=CC2C=CC(C1C(=O)OC)C1C(C(=O)OC)=C(C(=O)OC)C(C(=O)OC)=C(C(=O)OC)C21OC (stereo not given); > 100 µM

Prompt: Any idea what TGI was measured for Nc1ccccc1C(=O)CCC1C(=O)NC(=S)NC1=O ?
Response: > 100 µM

Prompt: Same lookup for CN(/N=C\c1ccnc2ccccc12)c1ccc([N+](=O)[O-])cc1 , please.
Response: > 100 µM

Prompt: Also COc1ccccc1/C=C/C1=NN(c2cccc(S(=O)(=O)O)c2)C2(C1)C(Cl)C(=O)N2c1nc2ccccc2s1 (stereo not given) , if possible.
Response: > 74.3 µM

Prompt: What about this compound? CC(=O)[C@H]1CCC/C=C/[C@@H]2C[C@H](O)C[C@H]2[C@H](O)/C=C/C(=O)O1
Response: > 23.3 µM

Prompt: Same question, O=C1NN(Cc2ccccc2)C(=O)N2CCC[C@@H]12 this time
Response: > 100 µM

Prompt: Continue with Cc1cc(=O)oc2cc(OCC(O)COC(C)C)ccc12 (stereo not given)
Response: > 100 µM

Prompt: Further, for COC(=O)[C@@]12CC(C(C)C)[C@H]3CC(C(=O)C=C1OC)[C@H]32 (stereo not given in full) ?
Response: > 100 µM

====

System: HS 578T breast
Experiment: NCI tumour cell line growth inhibition, 48 h
Entries and their measured GI50 follow.

Cn1cc(-c2cnn3c(N)c(Br)c(C4CCCNC4)nc23)cn1 (centres undefined); 4 µM
C/C(=C(\c1ccc(OCCN2CCCCCC2)cc1)c1ccc(OC(=O)c2ccccc2)cc1)c1ccc(Cl)cc1; 3.04 µM
COC(=O)c1oc2c(C(=O)/C=C/c3ccc(OC)cc3)c(OCCN(C)C)ccc2c1C; 6.27 µM

Prompt: // query GI50 value for entry CC[C@@H](C)/C=C(C)/C=C/C(=O)c1c(O)c(-c2ccc(O)cc2)cn(O)c1=O
Response: 2.83 µM

Prompt: Next compound: Cc1cc2c(-c3nc4ccccn4c3N)c(O)c(O)cc2c(O)c1-c1c(C)cc2c(-c3nc4ccccn4c3N)c(O)c(O)cc2c1O
Response: 0.797 µM

Prompt: And Cc1cc(Nc2nc(N[C@@H](C)c3ncc(F)cn3)ncc2Cl)n[nH]1 ?
Response: 15.9 µM

Prompt: Another compound to look at: O=C(O)C1[O][Sb][O]C(C(=O)O)C1O (centres undefined)
Response: > 100 µM

Prompt: One more compound: Cc1cc(-c2cc(O)ccc2Cl)cc2nnc(Nc3ccc(OCCN4CCCC4)cc3)nc12
Response: 1.54 µM

Prompt: Consider next the compound C#CCN(c1ccc(C(=O)N[C@@H](CCC(=O)N[C@H](CCC(=O)O)C(=O)O)C(=O)O)cc1)C1CCc2cc3nc(CO)[nH]c(=O)c3cc21 (some centres undefined) in the same way.
Response: > 100 µM
